molecular target: recombinant human MAO-B (monoamine oxidase-B) (Homo sapiens); construct: purchased Sigma-Aldrich; test: Activity evaluation on recombinant human MAO-B (Amplex Red/HRP-coupled assay, 1 mM benzylamine substrate); type: biochemical; details: 1 mM benzylamine substrate, read-out: Inhibitory Activity (IC50, nM) MAO-B
Sequence (P27338 whole entry): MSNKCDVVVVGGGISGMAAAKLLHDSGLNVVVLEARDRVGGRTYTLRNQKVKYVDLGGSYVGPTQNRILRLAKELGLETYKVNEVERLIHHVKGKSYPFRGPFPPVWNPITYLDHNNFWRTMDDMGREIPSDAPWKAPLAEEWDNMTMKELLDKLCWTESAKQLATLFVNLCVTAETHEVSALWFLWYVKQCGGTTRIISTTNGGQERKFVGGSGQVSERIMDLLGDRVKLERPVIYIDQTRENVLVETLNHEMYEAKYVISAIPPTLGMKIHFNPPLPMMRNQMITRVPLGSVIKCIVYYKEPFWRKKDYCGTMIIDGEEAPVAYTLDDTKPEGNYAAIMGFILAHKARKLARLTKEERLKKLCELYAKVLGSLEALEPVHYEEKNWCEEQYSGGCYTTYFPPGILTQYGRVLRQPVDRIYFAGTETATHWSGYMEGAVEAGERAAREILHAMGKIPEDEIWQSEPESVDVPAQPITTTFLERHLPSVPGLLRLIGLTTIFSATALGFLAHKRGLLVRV
Counter-ions that a name gives are not always drawn.
Each entry below carries its reported IC50.
measured.quantity: IC50

> print(dat)
                                    compound       result
 1  CS(=O)(=O)c1ccc(-c2ccc(Cn3cnn(CC(CN)=C(F)F)c3=O)cc2)cc1 [Example 265, Trifluoroacetate]  > 100000 nM
 2  CC(=O)N1CCN(c2ccc(-c3csc(Cn4cnn(CC(CN)=C(F)F)c4=O)c3)cc2)CC1 [Example 188, Trifluoroacetate]  > 100000 nM
 3  CC(=O)c1ccc(-c2cnc(-n3cnn(CC(CN)=C(F)F)c3=O)c(C)c2)s1 [Example 231, Trifluoroacetate]      1950 nM
 4  Cc1c(-c2cnn(C(C)C)c2)cccc1-n1cnn(CC(CN)=C(F)F)c1=O [Example 262, Trifluoroacetate]  > 100000 nM
 5  NCC(Cn1ncn(Cc2ccccc2-c2ccc(N3CCNCC3)cc2)c1=O)=C(F)F [Example 280, Ditrifluoroacetate]  > 100000 nM
 6  NCC(Cn1ncn(-c2cccc(-c3ccc(N4CCOCC4)nc3)n2)c1=O)=C(F)F [Example 215, Trifluoroacetate]  > 100000 nM
 7  Cc1c(-c2ccc3c(c2)CCC(=O)N3C)cccc1-n1cnn(CC(CN)=C(F)F)c1=O [Example 259, Trifluoroacetate]  > 100000 nM
 8  Cc1cc(-c2cc(F)c(Cn3cnn(CC(CN)=C(F)F)c3=O)s2)cc2c1NC(=O)CC2 [Example 304, Trifluoroacetate]  > 100000 nM
 9  CCn1cc(-c2cccc(-c3cnc(-n4cnn(CC(CN)=C(F)F)c4=O)c(C)c3)c2)cn1 [Example 291, Trifluoroacetate]      3450 nM
10  Cc1cc(-c2cccc(S(C)(=O)=O)c2)cnc1-n1cnn(CC(CN)=C(F)F)c1=O [Example 234, Trifluoroacetate]      1800 nM
11  Cc1cc(-c2ccc3cc(Cn4cnn(CC(CN)=C(F)F)c4=O)sc3c2)cc2c1NC(=O)CC2 [Example 202, Trifluoroacetate]  > 100000 nM
12  Cc1cc(-c2cccc(Cn3cnn(CC(CN)=C(F)F)c3=O)c2)cc2c1NC(=O)CC2 [Example 275, Trifluoroacetate]     25400 nM
13  Cc1cc(C#Cc2ccc3c(c2)CCC(=O)N3)cnc1-n1cnn(CC(CN)=C(F)F)c1=O [Example 249, Trifluoroacetate]      3100 nM
14  CN1C(=O)CCc2cc(-c3cc(F)c(Cn4cnn(CC(CN)=C(F)F)c4=O)s3)ccc21 [Example 301, trifluoroacetate]  > 100000 nM

----------
Each entry below carries its reported IC50.
molecular target: recombinant human MAO-A (monoamine oxidase-A) (Homo sapiens, UniProt P21397); construct: purchased Sigma-Aldrich; assay: Activity evaluation on recombinant human MAO-A (Amplex Red/HRP-coupled assay, 0.5 mM tyramine substrate); format: biochemical; settings: 0.5 mM tyramine, read-out: Inhibitory Activity (IC50, nM) MAO-A
Sequence (P21397 whole entry): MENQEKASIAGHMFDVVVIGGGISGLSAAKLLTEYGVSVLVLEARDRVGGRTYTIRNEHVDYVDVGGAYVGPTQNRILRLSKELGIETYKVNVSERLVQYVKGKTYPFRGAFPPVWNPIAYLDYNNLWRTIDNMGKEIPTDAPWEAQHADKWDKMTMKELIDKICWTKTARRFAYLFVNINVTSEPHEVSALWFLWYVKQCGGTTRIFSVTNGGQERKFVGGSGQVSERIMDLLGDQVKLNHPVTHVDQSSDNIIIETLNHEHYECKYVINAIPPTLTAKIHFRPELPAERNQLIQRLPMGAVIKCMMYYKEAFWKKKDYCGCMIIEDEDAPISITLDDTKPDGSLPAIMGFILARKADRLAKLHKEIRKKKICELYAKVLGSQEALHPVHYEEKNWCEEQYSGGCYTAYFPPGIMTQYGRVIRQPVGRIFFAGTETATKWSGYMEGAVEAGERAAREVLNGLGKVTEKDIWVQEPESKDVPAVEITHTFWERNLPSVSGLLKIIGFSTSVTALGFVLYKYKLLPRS
Structures can show the parent of a compound that is named as a salt.
measured.quantity: IC50

> print(dat)
                                    compound       result
 1  CC(=O)N1CC=C(c2ccc(Cn3cnn(CC(CN)=C(F)F)c3=O)s2)CC1 [Example 125, Trifluoroacetate]  > 100000 nM
 2  Cc1cc(-n2cnn(CC(CN)=C(F)F)c2=O)cnc1-c1ccc(C(F)(F)F)nc1 [Example 77, Trifluoroacetate]  > 100000 nM
 3  NCC(Cn1ncn(-c2cccc(-c3ccc(N4CCNCC4)cc3)n2)c1=O)=C(F)F [Example 47, Ditrifluoroacetate]  > 100000 nM
 4  CN(C)c1ccc(-c2ccc(-n3cnn(CC(CN)=C(F)F)c3=O)cn2)cn1 [Example 41, Trifluoroacetate]  > 100000 nM
 5  NCC(Cn1ncn(Cc2ccc(-c3ccc4c(c3)COC(=O)N4)s2)c1=O)=C(F)F [Example 143, Trifluoroacetate]  > 100000 nM
 6  NCC(Cn1ncn(-c2cccc(Br)c2)c1=O)=C(F)F [Example 2, Trifluoroacetate]  > 100000 nM
 7  Cc1cc(-c2cc(-n3cnn(CC(CN)=C(F)F)c3=O)ccn2)cc2c1NC(=O)CC2 [Example 65, Trifluoroacetate]  > 100000 nM
 8  NCC(Cn1ncn(Cc2ccc(C#Cc3cnc4c(c3)NCCO4)s2)c1=O)=C(F)F [Example 166, Ditrifluoroacetate]   > 10000 nM
 9  CCn1cc(-c2ccc(-n3cnn(CC(CN)=C(F)F)c3=O)cc2F)cn1 [Example 30, Trifluoroacetate]  > 100000 nM
10  NCC(Cn1ncn(-c2ccc(Br)c(F)c2)c1=O)=C(F)F [Example 4, Trifluoroacetate]  > 100000 nM
11  CN1C(=O)CCc2cc(-c3ccc(CCn4cnn(CC(CN)=C(F)F)c4=O)s3)ccc21 [Example 179, Trifluoroacetate]  > 100000 nM
12  NCC(Cn1ncn(Cc2ccc(C#Cc3ccc4c(c3)CCC(=O)N4)s2)c1=O)=C(F)F [Example 165, Trifluoroacetate]  > 100000 nM
13  Cc1cc(-c2ccc3c(c2)OCO3)cnc1-n1cnn(CC(CN)=C(F)F)c1=O [Example 72, Trifluoroacetate]  > 100000 nM
14  NCC(Cn1ncn(Cc2ccc(C#Cc3ccc4c(c3)NCCO4)s2)c1=O)=C(F)F [Example 164, Ditrifluoroacetate]      4000 nM
